c-Cbl (Homo sapiens (Human), UniProt P22681) IC50 data
Sequence (P22681 47-435): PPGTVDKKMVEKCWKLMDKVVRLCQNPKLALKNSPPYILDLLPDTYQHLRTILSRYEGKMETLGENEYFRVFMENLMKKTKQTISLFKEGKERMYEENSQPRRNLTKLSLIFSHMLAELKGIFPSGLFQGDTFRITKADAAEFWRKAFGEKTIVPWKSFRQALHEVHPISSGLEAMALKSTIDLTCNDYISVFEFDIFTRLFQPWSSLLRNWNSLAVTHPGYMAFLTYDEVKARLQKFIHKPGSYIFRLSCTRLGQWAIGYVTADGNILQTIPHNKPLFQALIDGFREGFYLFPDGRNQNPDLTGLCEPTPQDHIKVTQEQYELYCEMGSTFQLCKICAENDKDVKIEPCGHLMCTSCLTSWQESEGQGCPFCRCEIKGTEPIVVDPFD
Be sure to follow the number with its unit.

Please give IC50 for each item listed below.
1. Cn1cnnc1[C@]1(c2cccc(N3Cc4c(cc(CNC5(C)CCC5)cc4C(F)(F)F)C3=O)c2)C[C@H]([S@@+](C)[O-])C1 (single isomer, unassigned)
2. Cn1cnnc1C1(c2cccc(N3Cc4c(cc(CNC5(C)CCC5)cc4C(F)(F)F)C3=O)c2)CN(C2COC2)C1
3. CO[C@H]1C[C@](c2cccc(N3Cc4c(cc(CNCC5CCC5)cc4C(F)(F)F)C3=O)c2)(c2nncn2C)C1
4. CO[C@H]1C[C@](c2cccc(N3Cc4c(cc(CNC5CC(C)(F)C5)cc4C(F)(F)F)C3=O)c2)(c2nncn2C)C1 (some centres unmarked)
5. COC[C@H]1CC1(c1cccc(N2Cc3c(cc(CNC4(C)CCC4)cc3C(F)(F)F)C2=O)c1)c1nncn1C (single isomer, unassigned)

Completion:
["4.3 µM", "20 µM", "0.011 µM", "0.024 µM", "6.4 µM"]

---

Test system Human Cbl-b (residues 40-426) (Homo sapiens (Human), UniProt Q13191), Kd listed for each of the compounds.
Give bare numbers, in µM.

# compound, Kd [µM]
data = [
    ("CO[C@H]1C[C@](c2cc(C3CC3)cc(N3Cc4c(cc(CNC5(C)CCC5)cc4C(F)(F)F)C3=O)c2)(c2nncn2C)C1", 0.0013),
    ("C[C@@H](c1cccc(N2Cc3c(cc(CNC4(C)CCC4)cc3C(F)(F)F)C2=O)c1)c1nncn1C (single isomer, unassigned)", 0.8),
]

Next:
Prompt: Could you tell me which Kd is on file for CCc1cc(N2Cc3c(cc(CNC4(C)CCC4)cc3C(F)(F)F)C2=O)cc([C@]2(c3nncn3C)C[C@H](OC)C2)c1 ?
Completion: 0.019

---

# testedSystem: UniProtKB Q13191
# assayRemarks: Cbl-b LCK Ub TR-FRET assay (Cbl-b Lck HTRF)
# Format: biochemical
# condition: ratio C-cbl Lck HTRF IC50 / Cbl-b Lck HTRF IC50
Provide the reported fold-selectivity (Cbl-b over C-cbl) of each item.
One number for each entry, in x.

Previously resolved entries follow.
# compound, testedSystem, readoutName, readoutUnits, quantitativeResult
records = [
    ("Cn1cnnc1[C@]1(c2cccc(N3Cc4c(cc(CNC5(C)CCC5)cc4C(F)(F)F)C3=O)c2)C[C@H](OC(F)F)C1", "UniProtKB Q13191", "fold-selectivity (Cbl-b over C-cbl)", "x", 3.0),
    ("Cn1cnnc1[C@H](c1cccc(N2Cc3c(cc(CNC4(C)CCC4)cc3C(F)(F)F)C2=O)c1)C1CCOCC1.O=CO (single isomer, unassigned)", "UniProtKB Q13191", "fold-selectivity (Cbl-b over C-cbl)", "x", 4.3),
]

# evaluate next
Prompt: Entry Cn1cnnc1[C@]1(c2cccc(N3Cc4c(cc(CNC5(C)CCC5)cc4C(F)(F)F)C3=O)c2)C[C@H](CO)C1.O=CO : reported fold-selectivity (Cbl-b over C-cbl) = ?
Completion: 3.7

---

Exercise: state measured Fold of selectivity for each of the compounds provided.
# testedSystem: Human Cbl-b (residues 40-426) (Homo sapiens (Human), UniProt Q13191)
# Sequence (Q13191 40-426): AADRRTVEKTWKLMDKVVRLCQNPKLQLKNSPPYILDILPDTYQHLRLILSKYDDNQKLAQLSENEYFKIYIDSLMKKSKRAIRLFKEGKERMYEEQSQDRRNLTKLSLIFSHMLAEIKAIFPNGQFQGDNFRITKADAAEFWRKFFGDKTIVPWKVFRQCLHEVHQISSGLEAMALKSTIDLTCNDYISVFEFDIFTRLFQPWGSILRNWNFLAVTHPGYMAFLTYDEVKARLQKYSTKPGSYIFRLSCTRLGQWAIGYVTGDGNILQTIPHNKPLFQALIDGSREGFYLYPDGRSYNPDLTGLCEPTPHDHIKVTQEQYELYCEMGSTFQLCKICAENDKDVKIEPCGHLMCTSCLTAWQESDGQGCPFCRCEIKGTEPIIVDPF
# assayRemarks: Cbl-b SPR assay
# Assay type: binding
# condition: C-cbl SPR Kd vs Cbl-b SPR Kd
Numbers only, in ×.

Value sought for every listed compound: Fold of selectivity.
1. Cn1cnnc1[C@]1(c2cccc(N3Cc4c(cc(CNC5(C)CCC5)cc4C(F)(F)F)C3=O)c2)C[C@@](O)(C(F)(F)F)C1 [Compound 120]
2. CO[C@H]1C[C@](c2cccc(N3Cc4c(cc(CN[C@H]5[C@@H]6COC[C@@H]65)cc4C(F)(F)F)C3=O)c2)(c2nncn2C)C1 [Compound 492]

Completion:
6.8
15

// each listed compound needs a value for Fold of selectivity
1. Cn1cnnc1C1(c2cccc(N3Cc4c(cc(CNC5(C)CCC5)cc4C(F)(F)F)C3=O)c2)CC2(COC2)C1 [Compound 65]
2. Cn1cnnc1[C@H](C[C@H]1CCOC1)c1cccc(N2Cc3c(cc(CNC4(C)CCC4)cc3C(F)(F)F)C2=O)c1 [Compound 278]
3. CC[C@H]1C[C@@](c2cccc(N3Cc4c(Cl)cc(CNC5(C)CCC5)cc4C3=O)c2)(c2nncn2C)C1 [Compound 374]
4. Cn1cnnc1[C@H](c1cccc(N2Cc3c(cc(CNC4(C)CCC4)cc3C(F)(F)F)C2=O)c1)[C@H]1CCOC1 [Compound 169]
5. Cn1cnnc1[C@]1(c2cc(NC3CCCC3)nc(N3Cc4c(cc(CNC5(C)CCC5)cc4C(F)(F)F)C3=O)c2)C[C@@H](C)C1 [Compound 52]
6. COc1cc(N2Cc3c(cc(CNC4(C)CCC4)cc3C(F)(F)F)C2=O)cc([C@]2(c3nncn3C)C[C@@H](OC)C2)c1 [Compound 200]

Completion:
1: 19; 2: 4.8; 3: 11; 4: 2.7; 5: 11; 6: 2.4
